This collection of values is drawn from the supplement of paper PMC10567573.

B1: LRRC45 (parent)
chain: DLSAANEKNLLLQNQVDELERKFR

- Variants of: B1
- PROTOCOL TEXT: protein stability index of a GFP-peptide fusion (GPS, HEK-293T) (PSI 1-6); higher = more stable;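 also: lentivirally expressed fusions sorted by FACS into six bins by GFP to DsRed ratio, PSI derived from sequencing read proportions per bin multiplied by bin number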
- CONDITION: c terminus: a fixed tail appended
ATTRIBUTE MEASURED: protein stability index
// keep it numeric: no unit symbol after the value

For orientation, consider the following solved cases.
   mutant       attribute_measured  observed_result
0    F23V  protein stability index             3.91
1    Q13I  protein stability index              3.6
2     K8M  protein stability index                4
3    Q15N  protein stability index             3.75
4     E7S  protein stability index             3.74
5    L19W  protein stability index             3.75

Prompt line: Endpoint output: protein stability index of `S3P` . Value?
Response line: 4.31

Prompt line: So what's the measured protein stability index for this one? `K22P`
Response line: 3.88

Prompt line: Item `L11M` has what recorded protein stability index?
Response line: 3.56

Prompt line: Any idea what its protein stability index is? The variant is `D17T`
Response line: 2.96

Prompt line: Requested field: protein stability index. Item: `K22G`
Response line: 3.62

Prompt line: What value of protein stability index has been reported for the following variant? `L11H`
Response line: 4.59
